test: physchem
VALUE_TYPE: pKa
Lab note: jot down the number only; don't add units.

CC(C)N1CCC(Oc2ccc3[nH]c(C(=O)N4CCCCCC4)cc3c2)CC1    9.7
O=C(c1cc2cc(OC3CCN(C4CC4)CC3)ccc2n1CC(F)(F)F)N1CCOCC1    7.5
O=C(c1cc2cc(OC3CCN(C4COC4)CC3)ccc2n1CC(F)(F)F)N1CCOCC1    6.4

Record summary for CC(C)N1CCC(Oc2ccc3c(c2)cc(C(=O)N2CCC(F)(F)CC2)n3S(C)(=O)=O)CC1 : reported pKa = 9.6

Form: molecule = CC(C)(C)N1CCC(Oc2ccc3[nH]c(C(=O)N4CCOCC4)cc3c2)CC1 ; pKa = 10

Value of pKa reported for the molecule CC(C)N1CCC(Oc2ccc3[nH]c(C(=O)N4CCC(F)(F)CC4)cc3c2)CC1 is 9.7

Noted for O=C(c1cc2cc(OC3CCN(C4CC4)CC3)ccc2[nH]1)N1CCOCC1 : its pKa reads 7.7

For this molecule ( CC(C)N1CCC(Nc2ccc3[nH]c(C(=O)N4CCOCC4)cc3c2)CC1 ), measured pKa is 9.9

---

assay: in vivo; conditions: Sprague-Dawley, rat, brain/plasma, ip, 30 mg/kg
Measured Kp values are reported for all entries that follow.
Number only, please.

O=C(c1ccc2c(c1)cc(C(=O)N1CCOCC1)n2CC(F)(F)F)N1CCN(C2CCC2)CC1    0.3

Entry CC(C)N1CCC(Oc2ccc3[nH]c(C(=O)N4CCOCC4)cc3c2)CC1 ; Kp = 0.3

---

conditions: human, microsomes, 2 µM
VALUE_TYPE: clearance

Below, each entry is followed by its recorded clearance result.
O=C(c1cc2cc(OC3CCN(C4COC4)CC3)ccc2n1CC(F)(F)F)N1CCOCC1    8 µL/min/mg
CC(C)N1CCC(Oc2ccc3c(c2)cc(C(=O)N2CCC(F)(F)CC2)n3S(=O)(=O)c2ccc(F)cc2)CC1    < 1 µL/min/mg
CC(C)N1CCC(Nc2ccc3[nH]c(C(=O)N4CCOCC4)cc3c2)CC1    5 µL/min/mg

Consider the additional compound presented here.
# clearance (compound: Cc1[nH]c2ccc(OC3CCN(C(C)C)CC3)cc2c1C(=O)N1CCOCC1 ) is < 1 µL/min/mg

---

settings: rat, microsomes, 2 µM
Classes are defined on clearance with ranges low-valued: < 10 µL/min/mg; mid-valued: ≥ 10 µL/min/mg and < 20 µL/min/mg; high-valued: ≥ 20 µL/min/mg

# input Form: Item = CCOC(=O)c1cc2cc(C(=O)O)ccc2[nH]1 ; Class = ?
# output mid-valued

# input Where would CC(C)N1CCC(Oc2ccc3c(c2)cc(C(=O)N2CCC(F)(F)CC2)n3C(C)C)CC1 land among the classes by reported clearance?
# output mid-valued

# input Record CC(C)(C)N1CCC(Oc2ccc3[nH]c(C(=O)N4CCOCC4)cc3c2)CC1 — which class?
# output mid-valued

# input Band for the recorded clearance of Cc1[nH]c2ccc(OC3CCN(C(C)C)CC3)cc2c1C(=O)N1CCOCC1 ?
# output mid-valued

# input Hey, which category is O=C(c1cc2cc(OC3CCN(C4COC4)CC3)ccc2n1CC(F)(F)F)N1CCOCC1 in, do you know?
# output high-valued

---

assay: in vivo; conditions: Wistar, rat
VALUE_TYPE: bioavailability (%)
Value expressed in %; do not type the unit.

Kindly note the recorded bioavailability for CC(C)N1CCC(Oc2ccc3[nH]c(C(=O)N4CCC(F)(F)CC4)cc3c2)CC1 , which is 100

---

experiment: physchem
VALUE_TYPE: pKa
Form field (numeric): enter value without unit.

Cc1[nH]c2ccc(OC3CCN(C(C)C)CC3)cc2c1C(=O)N1CCOCC1    9.8
CC(C)N1CCC(Oc2ccc3c(c2)cc(C(=O)N2CCOCC2)n3CC(F)(F)F)CC1    9.7
CC(C)N1CCC(Oc2ccc3cc(C(=O)N4CCOCC4)[nH]c3c2)CC1    9.7
CC(C)N1CCC(Oc2ccc3c(c2)cc(C(=O)N2CCC(F)(F)CC2)n3C(C)C)CC1    9.9
CC(C)N1CCC(Oc2ccc3[nH]c(C(=O)N4CCOCC4)cc3c2)CC1    10

Would you kindly look at the next entry?
// pKa lookup, compound = CC(C)N1CCC(Oc2ccc3c(c2)cc(C(=O)N2CCS(=O)(=O)CC2)n3CC(F)(F)F)CC1 , result: 9.6

---

organism: Rattus norvegicus; test: animal or person; details: Wistar, ip, read-out: INH
Item-by-item account of inhibition in vivo at 30 mg/kg
Use % as the unit, but write only the number.

Some entries whose results are on file:
CC(C)N1CCC(Oc2ccc3[nH]c(C(=O)N4CCOCC4)cc3c2)CC1    91
COC1CCN(C(=O)c2cc3cc(OC4CCN(C(C)C)CC4)ccc3[nH]2)CC1    70
CC(C)N1CCC(Oc2ccc3[nH]c(C(=O)N4CCC(O)C4)cc3c2)CC1 (centres undefined)    83

The value of inhibition in vivo at 30 mg/kg measured for the compound CC(C)N1CCC(Nc2ccc3[nH]c(C(=O)N4CCOCC4)cc3c2)CC1 turned out to be 99

---

assay: physchem; conditions: octanol/water, pH 7.4
List of logD values.
Could you respond with only the numeric value?

CCOC(=O)c1cc2cc(C(=O)O)ccc2[nH]1    0.04
CC(C)N1CCC(Oc2ccc3c(c2)cc(C(=O)N2CCC(F)(F)CC2)n3C(C)C)CC1    1.67
CC(C)N1CCC(Oc2ccc3cc(C(=O)N4CCOCC4)[nH]c3c2)CC1    0.31
CC(C)N1CCC(Oc2ccc3c(c2)cc(C(=O)N2CCC(F)(F)CC2)n3CC#N)CC1    1.13

Documented logD of CC(C)N1CCC(Oc2ccc3c(c2)cc(C(=O)N2CCC(F)(F)CC2)n3S(=O)(=O)c2ccc(F)cc2)CC1 : 3.04

Noted for CC(C)N1CCC(Oc2ccc3[nH]c(C(=O)N4CCC(O)C4)cc3c2)CC1 (stereo not given) : its logD reads -0.15

So for Cc1[nH]c2ccc(OC3CCN(C(C)C)CC3)cc2c1C(=O)N1CCOCC1 , the logged logD turned out to be -0.12

Summary for this compound, CC(C)N1CCC(Oc2ccc3c(c2)cc(C(=O)N2CCC(F)(F)CC2)n3CC(F)(F)F)CC1 : logD is 2.08

Reported logD for CC(C)N1CCC(Oc2ccc3c(c2)cc(C(=O)N2CCOCC2)n3CC(F)(F)F)CC1 was 1.1

Sample CC(C)N1CCC(Oc2ccc3c(c2)cc(C(=O)N2CCC(F)(F)CC2)n3-c2ccc(Cl)c(Cl)c2)CC1 ; logD observed: 3.38

Looking up O=C(c1ccc2c(c1)cc(C(=O)N1CCOCC1)n2CC(F)(F)F)N1CCN(C2CCC2)CC1 , I see its logD listed as 1.97

According to the records, this compound CC(C)N1CCC(Oc2ccc3[nH]c(C(=O)N4CCOCC4)cc3c2)CC1 displays logD of 0.09

---

assay: in vivo; settings: Sprague-Dawley, rat, brain, ip, 10 mg/kg
VALUE_TYPE: concentration at 2 h (ng/g)
API: value field is a number in ng/g; no unit string.

The compound identified as CC(C)N1CCC(Oc2ccc3c(c2)cc(C(=O)N2CCC(F)(F)CC2)n3CC(F)(F)F)CC1 registered its concentration at 2 h at 435

---

test: physchem; conditions: octanol/water, pH 7.4
VALUE_TYPE: logD
Just the number, please.

CC(C)N1CCC(Oc2ccc3[nH]c(C(=O)N4CCCC(F)(F)C4)cc3c2)CC1    1.23
CC(C)N1CCC(Oc2ccc3c(c2)cc(C(=O)N2CCC(F)(F)CC2)n3S(C)(=O)=O)CC1    1.31
CC(C)N1CCC(Oc2ccc3c(c2)cc(C(=O)N2CCS(=O)(=O)CC2)n3CC(F)(F)F)CC1    0.35

Moving on to another molecule below.
response.value for O=C(c1cc2cc(OC3CCN(C4CC4)CC3)ccc2[nH]1)N1CCOCC1 (field: logD) = 1.95

---

This listing pairs compounds with measured concentration at 2 h.
experiment: in vivo; conditions: Sprague-Dawley, rat, brain, po, 10 mg/kg
Answer format reminder: number followed by unit.

CC(C)N1CCC(Oc2ccc3[nH]c(C(=O)N4CCC(F)(F)CC4)cc3c2)CC1    1690 ng/g

Pending compound:
Input CC(C)N1CCC(Oc2ccc3c(c2)cc(C(=O)N2CCC(F)(F)CC2)n3C(C)C)CC1 . Output concentration at 2 h: 1270 ng/g

---

test: in vivo; conditions: Sprague-Dawley, rat, brain, ip, 30 mg/kg
VALUE_TYPE: concentration at 2 h (ng/g)
# output: bare number, implied unit ng/g

So for CC(C)N1CCC(Oc2ccc3[nH]c(C(=O)N4CCOCC4)cc3c2)CC1 , the logged concentration at 2 h turned out to be 2230

// data source = ChEMBL document CHEMBL1136951
